B1: VH:VL chains; a variant is named by its letters at X, in order (parent)
chain 1: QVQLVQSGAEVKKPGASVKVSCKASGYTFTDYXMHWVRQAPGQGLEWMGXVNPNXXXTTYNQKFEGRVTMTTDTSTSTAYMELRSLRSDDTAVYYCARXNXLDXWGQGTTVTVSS
chain 2: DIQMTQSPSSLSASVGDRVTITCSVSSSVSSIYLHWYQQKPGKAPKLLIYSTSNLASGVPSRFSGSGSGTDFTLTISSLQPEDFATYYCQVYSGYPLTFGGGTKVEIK

Variants of: B1
TEST SUMMARY: yeast display scFab, FACS + sequencing
READOUT NAME: non-specific binding call

Answered cases to consult:
{"MUTANT CODE": "VEGGGDVD", "non-specific binding call": "no binding"}
{"MUTANT CODE": "YKGRGYGF", "non-specific binding call": "binds"}
{"MUTANT CODE": "VTTADDWV", "non-specific binding call": "no binding"}
{"MUTANT CODE": "DKEGGAAD", "non-specific binding call": "no binding"}
{"MUTANT CODE": "VTTGGAVD", "non-specific binding call": "no binding"}
{"MUTANT CODE": "VTGTGAAV", "non-specific binding call": "no binding"}
{"MUTANT CODE": "YTEEAAVD", "non-specific binding call": "no binding"}
{"MUTANT CODE": "DTKAADGV", "non-specific binding call": "no binding"}

Inquiry: Give a short answer stating reported non-specific binding call for `SAGGDYVF` .
Reply text: no binding

Inquiry: Give a short answer stating reported non-specific binding call for `VAGTGDGY` .
Reply text: no binding

Inquiry: Give a short answer stating reported non-specific binding call for `VRERGSAD` .
Reply text: binds
